# credit: paper PMC6447767

Measured Cmax by item
- protocol: Pharmacokinetic study of the PZA-EMB-PTO-CFZ combination after oral administration
- test_parameters: beagle, dog, plasma, Cmax, Medium Dose (standard dose), in combination, n = 6

Examples with their reported Cmax follow.
>>> measured_result("NC(=O)c1cnccn1 [PZA, pyrazinamide]")
"125000 ng/mL"
>>> measured_result("CC[C@@H](CO)NCCN[C@@H](CC)CO")
"8720 ng/mL"

Shift focus to the following entry.
GET /values?readout=Cmax&item= `CC(C)/N=c1\cc2n(-c3ccc(Cl)cc3)c3ccccc3nc-2cc1Nc1ccc(Cl)cc1`
7.24 ng/mL

* * *

Measured half-life by item
- protocol: Pharmacokinetic study of the PZA-EMB-PTO-CFZ combination after oral administration
- test_parameters: beagle, dog, plasma, T1/2, Low Dose (half of standard dose), in combination, n = 6
State just the number; it will be interpreted in h.

Examples with their reported half-life follow.
>>> measured_result("CC(C)/N=c1\\cc2n(-c3ccc(Cl)cc3)c3ccccc3nc-2cc1Nc1ccc(Cl)cc1")
3.41
>>> measured_result("CC[C@@H](CO)NCCN[C@@H](CC)CO")
11.8

GET /values?readout=half-life&item= NC(=O)c1cnccn1 [PZA, pyrazinamide]
2.82

* * *

Measured AUC by item
- protocol: Pharmacokinetic study of the PZA-EMB-PTO-CFZ combination after oral administration
- test_parameters: beagle, dog, plasma, AUC0-τ, High Dose (double of standard dose), in combination, 0 to 24/48 h, n = 6
State just the number; it will be interpreted in µg·h/mL.

Examples with their reported AUC follow.
>>> measured_result("CC(C)/N=c1\\cc2n(-c3ccc(Cl)cc3)c3ccccc3nc-2cc1Nc1ccc(Cl)cc1")
0.143
>>> measured_result("NC(=O)c1cnccn1 [PZA, pyrazinamide]")
1970

Shift focus to the following entry.
GET /values?readout=AUC&item= `CC[C@@H](CO)NCCN[C@@H](CC)CO`
58.7

* * *

Measured AUC(0-inf) by item
- protocol: Pharmacokinetic study of the PZA-EMB-PTO-CFZ combination after oral administration
- test_parameters: beagle, dog, plasma, AUC0-∞, Low Dose (half of standard dose), in combination, n = 6
State just the number; it will be interpreted in ng·h/mL.

>>> measured_result("CC(C)/N=c1\\cc2n(-c3ccc(Cl)cc3)c3ccccc3nc-2cc1Nc1ccc(Cl)cc1")
23.8
>>> measured_result("CC[C@@H](CO)NCCN[C@@H](CC)CO")
7980

GET /values?readout=AUC(0-inf)&item= NC(=O)c1cnccn1 [PZA, pyrazinamide]
50200

* * *

- protocol: Pharmacokinetic study of the PZA-EMB-PTO-CFZ combination after oral administration
- test_parameters: beagle, dog, plasma, AUC0-τ, Low Dose (half of standard dose), in combination, 0 to 24/48 h, n = 6
measured_endpoint: AUC (ng·h/mL)
State just the number; it will be interpreted in ng·h/mL.

Examples with their reported AUC follow.
>>> measured_result("CC(C)/N=c1\\cc2n(-c3ccc(Cl)cc3)c3ccccc3nc-2cc1Nc1ccc(Cl)cc1")
17.5
>>> measured_result("CC[C@@H](CO)NCCN[C@@H](CC)CO")
7880

Shift focus to the following entry.
GET /values?readout=AUC&item= NC(=O)c1cnccn1 [PZA, pyrazinamide]
50200

* * *

- protocol: Pharmacokinetic study of the PZA-EMB-PTO-CFZ combination after oral administration
- test_parameters: beagle, dog, plasma, Tmax, High Dose (double of standard dose), in combination, n = 6, mean ± S.D.
Measured Tmax by item
State just the number; it will be interpreted in h.

>>> measured_result("NC(=O)c1cnccn1 [PZA, pyrazinamide]")
1.33

Shift focus to the following entry.
GET /values?readout=Tmax&item= `CC[C@@H](CO)NCCN[C@@H](CC)CO`
0.92

* * *

Measured half-life by item
- protocol: Pharmacokinetic study of the PZA-EMB-PTO-CFZ combination after oral administration
- test_parameters: beagle, dog, plasma, T1/2, Medium Dose (standard dose), in combination, n = 6
State just the number; it will be interpreted in h.

Examples with their reported half-life follow.
>>> measured_result("CC(C)/N=c1\\cc2n(-c3ccc(Cl)cc3)c3ccccc3nc-2cc1Nc1ccc(Cl)cc1")
4.03
>>> measured_result("NC(=O)c1cnccn1 [PZA, pyrazinamide]")
2.7

Shift focus to the following entry.
GET /values?readout=half-life&item= `CC[C@@H](CO)NCCN[C@@H](CC)CO`
12.7

* * *

- protocol: Pharmacokinetic study of the PZA-EMB-PTO-CFZ combination after oral administration
- test_parameters: beagle, dog, plasma, Cmax, High Dose (double of standard dose), in combination, n = 6
Measured Cmax by item
State just the number; it will be interpreted in ng/mL.

Examples with their reported Cmax follow.
>>> measured_result("NC(=O)c1cnccn1 [PZA, pyrazinamide]")
241000
>>> measured_result("CC(C)/N=c1\\cc2n(-c3ccc(Cl)cc3)c3ccccc3nc-2cc1Nc1ccc(Cl)cc1 [CFZ, clofazimine]")
21.6

Shift focus to the following entry.
GET /values?readout=Cmax&item= CC[C@@H](CO)NCCN[C@@H](CC)CO [EMB, ethambutol]
21100

* * *

Measured Cmax by item
- protocol: Pharmacokinetic study of the PZA-EMB-PTO-CFZ combination after oral administration
- test_parameters: beagle, dog, plasma, Cmax, Low Dose (half of standard dose), in combination, n = 6
State just the number; it will be interpreted in ng/mL.

Examples with their reported Cmax follow.
>>> measured_result("CC[C@@H](CO)NCCN[C@@H](CC)CO [EMB, ethambutol]")
2930
>>> measured_result("NC(=O)c1cnccn1 [PZA, pyrazinamide]")
57000

Shift focus to the following entry.
GET /values?readout=Cmax&item= CC(C)/N=c1\cc2n(-c3ccc(Cl)cc3)c3ccccc3nc-2cc1Nc1ccc(Cl)cc1 [CFZ, clofazimine]
3.69

* * *

- protocol: in vivo
- test_parameters: beagle, dog, po
measured_endpoint: Tmax
Give the value; after it, write the unit.

GET /values?readout=Tmax&item= CC(C)/N=c1\cc2n(-c3ccc(Cl)cc3)c3ccccc3nc-2cc1Nc1ccc(Cl)cc1 [CFZ, clofazimine]
3.17 h

* * *

- protocol: Pharmacokinetic study of the PZA-EMB-PTO-CFZ combination after oral administration
- test_parameters: beagle, dog, plasma, T1/2, High Dose (double of standard dose), in combination, n = 6
measured_endpoint: half-life (h)
State just the number; it will be interpreted in h.

>>> measured_result("CC(C)/N=c1\\cc2n(-c3ccc(Cl)cc3)c3ccccc3nc-2cc1Nc1ccc(Cl)cc1")
3.63
>>> measured_result("CC[C@@H](CO)NCCN[C@@H](CC)CO")
12

Shift focus to the following entry.
GET /values?readout=half-life&item= NC(=O)c1cnccn1 [PZA, pyrazinamide]
2.62

* * *

Measured AUC(0-inf) by item
- protocol: Pharmacokinetic study of the PZA-EMB-PTO-CFZ combination after oral administration
- test_parameters: beagle, dog, plasma, AUC0-∞, High Dose (double of standard dose), in combination, n = 6
Give the value; after it, write the unit.

>>> measured_result("CC[C@@H](CO)NCCN[C@@H](CC)CO [EMB, ethambutol]")
"59.2 µg·h/mL"
>>> measured_result("CC(C)/N=c1\\cc2n(-c3ccc(Cl)cc3)c3ccccc3nc-2cc1Nc1ccc(Cl)cc1 [CFZ, clofazimine]")
"0.147 µg·h/mL"

GET /values?readout=AUC(0-inf)&item= NC(=O)c1cnccn1 [PZA, pyrazinamide]
1970 µg·h/mL
